Recorded protein stability index values for a group of variants are listed next.
B1: CRYL1 (parent)
chain: RNALENIRKEMKLLEQAGSLKGSL

# Variants of: B1
# procedure_details: protein stability index of a GFP-peptide fusion (GPS, HEK-293T) (PSI 1-6); higher = more stable;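 further: lentivirally expressed fusions sorted by FACS into six bins by GFP to DsRed ratio, PSI derived from sequencing read proportions per bin multiplied by bin number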
# condition: c terminus: a fixed tail appended
Give the figure only, with no unit attached.

Past entries and their recorded results:
| changes | protein stability index |
| --- | --- |
| N2M | 3.05 |
| E5M | 3 |
| G18H | 3.08 |
| E5C | 2.98 |
| S19R | 3.08 |

Would you kindly look at the next entry?
**Query** Look up protein stability index for this variant: N6V
**Result** 3.03
